biological target: Jak1 (Homo sapiens); construct: endogenous in cells; host or cells: TF1 cells; experiment: Jak1 (PSTAT3 TF1) alpha screen assay: inhibition of IL-6 induced phosphorylation of STAT3 in TF1 cells; format: cell-based; conditions: calculated from tabulated EC50 data (Jak1 / Tyk2)
Sequence (P23458 whole entry): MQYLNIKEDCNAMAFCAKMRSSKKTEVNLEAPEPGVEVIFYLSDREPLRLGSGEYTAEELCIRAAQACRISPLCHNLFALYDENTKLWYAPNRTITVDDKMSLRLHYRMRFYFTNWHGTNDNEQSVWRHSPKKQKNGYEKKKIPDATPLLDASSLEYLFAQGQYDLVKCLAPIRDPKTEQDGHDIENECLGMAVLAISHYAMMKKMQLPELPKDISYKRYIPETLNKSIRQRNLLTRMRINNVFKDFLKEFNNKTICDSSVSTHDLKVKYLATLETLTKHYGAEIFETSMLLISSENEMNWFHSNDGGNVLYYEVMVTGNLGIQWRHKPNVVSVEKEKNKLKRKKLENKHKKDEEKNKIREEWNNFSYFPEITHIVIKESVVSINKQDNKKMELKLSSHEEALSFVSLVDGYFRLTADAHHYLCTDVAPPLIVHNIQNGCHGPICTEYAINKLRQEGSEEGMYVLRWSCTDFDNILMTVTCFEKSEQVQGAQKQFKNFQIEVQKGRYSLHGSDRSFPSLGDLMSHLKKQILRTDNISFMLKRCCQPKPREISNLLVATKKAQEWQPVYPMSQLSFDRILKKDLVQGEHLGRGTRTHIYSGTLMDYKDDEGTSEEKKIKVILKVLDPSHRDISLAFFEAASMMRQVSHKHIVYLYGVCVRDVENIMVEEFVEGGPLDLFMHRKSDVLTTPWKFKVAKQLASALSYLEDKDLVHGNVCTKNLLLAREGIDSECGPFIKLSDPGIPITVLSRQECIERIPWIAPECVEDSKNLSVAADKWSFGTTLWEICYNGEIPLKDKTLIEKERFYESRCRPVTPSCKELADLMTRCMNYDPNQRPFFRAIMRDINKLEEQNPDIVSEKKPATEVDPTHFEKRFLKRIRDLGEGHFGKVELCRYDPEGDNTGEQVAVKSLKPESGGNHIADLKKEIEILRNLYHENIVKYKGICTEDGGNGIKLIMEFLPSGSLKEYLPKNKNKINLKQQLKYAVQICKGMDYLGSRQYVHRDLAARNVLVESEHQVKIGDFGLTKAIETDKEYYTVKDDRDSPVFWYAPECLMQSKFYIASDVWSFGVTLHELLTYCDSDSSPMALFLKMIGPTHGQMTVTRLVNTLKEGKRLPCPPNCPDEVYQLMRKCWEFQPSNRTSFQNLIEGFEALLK
MEASUREMENT_LABEL: Tyk2 selectivity over Jak1

Data request, read-out Tyk2 selectivity over Jak1, for CO[C@@]1(c2cc(C)cc(-c3cn(C)c4cnc(NC(N)=O)cc34)n2)CCOC1 [Example 1b.2]
840-fold

Field entry: CO[C@@]1(c2cc(C)cc(-c3cn([C@H]4C[C@H](C#N)C4)c4cnc(NC(C)=O)cc34)n2)CCOC1 [Example 17.4]
157-fold

Field entry: CO[C@]1(c2cc(C)cc(-c3cn(C)c4cnc(NC(N)=O)cc34)n2)CCOC1 [Example 1b.3]
10-fold

Field entry: CO[C@@]1(c2cc(OC3COC3)cc(-c3cn(C)c4cnc(NC(C)=O)cc34)n2)CCOC1 [Example 8]
244-fold

Field entry: CO[C@@]1(c2cc(C(F)F)cc(-c3cn(C4COC4)c4cnc(NC(C)=O)cc34)n2)CCOC1 [Example 4.3]
310-fold

Field entry: CO[C@@]1(c2cc(O[C@H]3C[C@H](O)C3)cc(-c3cn(C)c4cnc(NC(C)=O)cc34)n2)CCOC1 [Example 11]
442-fold

Field entry: COCc1cc(-c2cn(C)c3cnc(NC(C)=O)cc23)nc([C@]2(OC)CCOC2)c1 [Example 2]
>317-fold

Field entry: Cn1cc(-c2cccc(C3(O)COC3)n2)c2cc(NC(N)=O)ncc21 [Example 14]
20-fold

Field entry: COc1cc(-c2cn(C3COC3)c3cnc(NC(C)=O)cc23)nc([C@]2(OC)CCOC2)c1 [Example 5]
>901-fold

Field entry: COCc1cc(-c2cn(C)c3cnc(NC(=O)CO)cc23)nc([C@]2(OC)CCOC2)c1 [Example 24]
>1087-fold

Field entry: COCc1cc(-c2cn(C)c3cnc(NC(C)=O)cc23)nc([C@]2([C@@H](C)O)CCOC2)c1 [Example 22.4]
243-fold

Field entry: COc1cc(-c2cn(C)c3cnc(NC(C)=O)cc23)nc([C@]2(CO)CCOC2)c1 [Example 22.6]
85-fold

Field entry: COCCOc1cc(-c2cn(C)c3cnc(NC(C)=O)cc23)nc([C@]2(CO)CCOC2)c1 [Example 22.8]
103-fold

Field entry: CO[C@@]1(c2cccc(-c3cn([C@@H]4CC4(F)F)c4cnc(NC(N)=O)cc34)n2)CCOC1 [Example 1.2]
300-fold

Field entry: CO[C@@]1(c2cc(C)cc(-c3cn([C@H]4C[C@@H](C#N)C4)c4cnc(NC(C)=O)cc34)n2)CCOC1 [Example 17.5]
6400-fold

Field entry: CO[C@@]1(c2cc(C(F)F)cc(-c3cn([C@H]4CCOC4)c4cnc(NC(N)=O)cc34)n2)CCOC1 [Example 12b.3]
1214-fold

Field entry: CO[C@@]1(c2cc(C(F)F)cc(-c3cn(C)c4cnc(NC(N)=O)cc34)n2)CCOC1 [Example 12.5]
909-fold

Field entry: CO[C@@]1(c2cc(O[C@@H](C)CCO)cc(-c3cn(C)c4cnc(NC(C)=O)cc34)n2)CCOC1 [Example 14.4]
470-fold

Field entry: CO[C@@]1(c2cc(C(F)F)cc(-c3cn([C@H]4C[C@H](C#N)C4)c4cnc(NC(C)=O)cc34)n2)CCOC1 [Example 17.2]
243-fold

Field entry: CO[C@@]1(c2cccc(-c3cn(C)c4cnc(NC(N)=O)cc34)n2)CCOC1 [Example 1]
92-fold

Field entry: CO[C@@]1(c2cc(C#N)cc(-c3cn([C@@H]4CC4(F)F)c4cnc(NC(C)=O)cc34)n2)CCOC1 [Example 2a.3]
440-fold

Field entry: COCc1cc(-c2cn(C)c3cnc(NC(C)=O)cc23)nc([C@]2([C@H](C)O)CCOC2)c1 [Example 22.3]
88-fold

Field entry: COC1(c2cccc(-c3cn(C)c4cnc(NC(N)=O)cc34)n2)COC1 [Example 1b.4]
54-fold

Field entry: CC[C@@]1(c2cccc(-c3cn(C)c4cnc(NC(N)=O)cc34)n2)CCOC1 [Example 3.2]
243-fold

Field entry: CO[C@@]1(c2cc(OC[C@H](C)O)cc(-c3cn(C)c4cnc(NC(C)=O)cc34)n2)CCOC1 [Example 14.5]
486-fold

Field entry: CC(=O)Nc1cc2c(-c3cccc([C@]4(CO)CCOC4)n3)cn(C)c2cn1 [Example 21]
35-fold

Field entry: CO[C@@]1(c2cc(OC(F)F)cc(-c3cn(C)c4cnc(NC(C)=O)cc34)n2)CCOC1 [Example 22.2]
393-fold

Field entry: COCCOc1cc(-c2cn(C)c3cnc(NC(C)=O)cc23)nc([C@]2(OC)CCOC2)c1 [Example 25]
1960-fold

Field entry: COc1cc(-c2cn(C)c3cnc(NC(N)=O)cc23)nc([C@@]2(OC)CCOC2)c1 [Example 12.7]
81-fold

Field entry: COCc1cc(-c2cn(C)c3cnc(NC(N)=O)cc23)nc([C@]2(OC)CCOC2)c1 [Example 3]
514-fold

Field entry: CO[C@@]1(c2cc(OCC[C@@H](C)O)cc(-c3cn(C)c4cnc(NC(C)=O)cc34)n2)CCOC1 [Example 7]
39-fold
